Molecular target: Kappa-type opioid receptor (Cavia porcellus)
Sequence (P41144 whole entry): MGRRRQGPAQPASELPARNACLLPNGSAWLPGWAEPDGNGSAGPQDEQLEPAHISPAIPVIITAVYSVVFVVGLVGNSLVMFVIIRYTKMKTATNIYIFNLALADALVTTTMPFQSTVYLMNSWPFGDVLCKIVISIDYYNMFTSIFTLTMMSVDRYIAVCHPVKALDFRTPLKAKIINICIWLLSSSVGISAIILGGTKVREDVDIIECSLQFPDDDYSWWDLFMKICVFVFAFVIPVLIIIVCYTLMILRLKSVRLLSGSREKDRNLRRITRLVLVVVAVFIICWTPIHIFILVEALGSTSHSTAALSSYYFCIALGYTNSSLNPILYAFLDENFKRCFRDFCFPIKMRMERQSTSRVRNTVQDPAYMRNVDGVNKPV
assayReadout: pKi
For clarity, pKi is expressed as the negative log10 of concentration in mol/L.

Examples with their reported pKi follow.
compound="C[C@H]1CN(CCC(O)C2CCCC2)CC[C@@]1(C)c1cccc(O)c1 (stereo not given in full)" assayreadout=pKi measurednumber=8.26
compound=C[C@H]1CN(CCC2CCCCC2)CC[C@@]1(C)c1cccc(O)c1 assayreadout=pKi measurednumber=8.64
compound=CC(C)CCCN1CC[C@@](C)(c2cccc(O)c2)[C@@H](C)C1 assayreadout=pKi measurednumber=8.02
compound="CC(C)C(O)CCN1CC[C@@](C)(c2cccc(O)c2)[C@@H](C)C1 (stereo not given in full)" assayreadout=pKi measurednumber=8.16
compound="CC(C)CCCCN1CC[C@@](C)(c2cccc(O)c2)[C@@H](C)C1 (stereo in doubt; 39)" assayreadout=pKi measurednumber=8.72
compound=C[C@H]1CN(CCC2CCCC2)CC[C@@]1(C)c1cccc(O)c1 assayreadout=pKi measurednumber=8.14
compound=C[C@@H]1CN(CC[C@@H](O)C2CCCCC2)CC[C@]1(C)c1cccc(O)c1 assayreadout=pKi measurednumber=7.84
compound=C[C@H]1CN(CCCC2CCCCC2)CC[C@@]1(C)c1cccc(O)c1 assayreadout=pKi measurednumber=8.64
compound=CC(C)CCN1CC[C@@](C)(c2cccc(O)c2)[C@@H](C)C1 assayreadout=pKi measurednumber=7.15

Field: next compound
## Input // lookup pKi for C[C@H]1CN(CCC2C=CCC2)CC[C@@]1(C)c1cccc(O)c1 (stereo not given in full)
## Output 9.00

---

# reported log10 AD50; entries follow
Molecular target: Kappa-type opioid receptor (Rattus norvegicus)
Experiment: Antagonism of bremazocine induced kappa receptor diuresis in rats at a concentration of 0.08 mg/kg subcutaneously
Type: functional, organism-based
Set-up: dose 0.08 mg/kg
Short version: log10 scale, AD50, mg/kg.

molecule=CC(C)CCCCN1CC[C@](C)(c2cccc(O)c2)[C@H](C)C1 measurednumber=0.68
molecule=C=C1CC[C@@]2(O)[C@H]3Cc4ccc(O)c5c4[C@@]2(CCN3CC2CC2)[C@H]1O5 measurednumber=0.00
molecule=C[C@H]1CN(CC[C@H](O)C2CCCCC2)CC[C@@]1(C)c1cccc(O)c1 measurednumber=-0.42

## Input Sample C=C(C)CCCN1CC[C@@](C)(c2cccc(O)c2)[C@@H](C)C1 — what was its log10 AD50?
## Output -0.41

## Input Which measured log10 AD50 value corresponds to C[C@@H]1CN(CCCc2cccs2)CC[C@]1(C)c1cccc(O)c1 ?
## Output 0.22

## Input Suppose we examine the molecule CC(C)CCCCN1CC[C@@](C)(c2cccc(O)c2)[C@@H](C)C1 (stereo in doubt; 39) ; what log10 AD50 value has been reported?
## Output 0.12

## Input # query: log10 AD50 of entry C[C@H]1CN(CCCc2ccsc2)CC[C@@]1(C)c1cccc(O)c1
## Output 0.28

## Input Entry C[C@H]1CN(CCC2CCCCC2)CC[C@@]1(C)c1cccc(O)c1 : reported log10 AD50 = ?
## Output -0.16

## Input Would you mind telling me what log10 AD50 value was observed for C[C@H]1CN(CC2CCCCC2)CC[C@@]1(C)c1cccc(O)c1 ?
## Output 0.66

## Input Value lookup for log10 AD50; key = C[C@H]1CN(CCC(O)C2CCCCC2)CC[C@@]1(C)c1cccc(O)c1 (stereo not given in full)
## Output -0.31

## Input Can you look up the measured log10 AD50 of C[C@H]1CN(CCC2CCCC2)CC[C@@]1(C)c1cccc(O)c1 for me?
## Output -0.17

---

Consider the following molecules and their measured AD50 readings.
Molecular target: Mu-type opioid receptor (Mus musculus)
Assay: Antagonistic activity towards morphine induced mu-opioid receptor by mouse writhing assay at 1.25 mg/kg subcutaneously
Type: functional, organism-based
Set-up: dose 1.25 mg/kg
Give your result in mg/kg as a bare value.

A selection of reference data follows.
molecule=C[C@H]1CN(CCC2CCCCC2)CC[C@@]1(C)c1cccc(O)c1 measurednumber=0.1
molecule=C[C@@H]1CN(CC[C@@H](O)C2CCCCC2)CC[C@]1(C)c1cccc(O)c1 measurednumber=0.52
molecule=CC(C)CCCCN1CC[C@](C)(c2cccc(O)c2)[C@H](C)C1 measurednumber=0.35

## Input Value lookup for AD50; key = CCCCCCN1CC[C@@](C)(c2cccc(O)c2)[C@@H](C)C1 (stereo in doubt; 37)
## Output 0.26

## Input Which measured AD50 value corresponds to C[C@H]1CN(CCCc2ccsc2)CC[C@@]1(C)c1cccc(O)c1 ?
## Output 0.12

## Input Item C[C@H]1CN(CCCC2CCCC2)CC[C@@]1(C)c1cccc(O)c1 has what recorded AD50?
## Output 0.12

## Input Give the measured AD50 of CC(C)CCCN1CC[C@@](C)(c2cccc(O)c2)[C@@H](C)C1 .
## Output 0.11

## Input For the molecule CC(C)CCN1CC[C@@](C)(c2cccc(O)c2)[C@@H](C)C1 , what AD50 is on record?
## Output 0.87

---

Molecular target: Kappa-type opioid receptor (Mus musculus)
Experiment: Antagonist activity towards U50 488 induced kappa opioid receptor by mouse writhing assay at 2.5 mg/kg subcutaneously
Assay type: functional, organism-based
Set-up: dose 2.5 mg/kg
assayReadout: log10 of AD50 (log10 of the value in mg/kg)
Short version: log10 scale, AD50, mg/kg.

Below: 5 molecules and their reported log10 of AD50.
molecule="CC(C)C(O)CCN1CC[C@@](C)(c2cccc(O)c2)[C@@H](C)C1 (stereo not given in full)" measurednumber=-0.46
molecule="CCCCCCN1CC[C@@](C)(c2cccc(O)c2)[C@@H](C)C1 (stereo in doubt; 37)" measurednumber=-0.66
molecule=C[C@H]1CN(CC2CCCCC2)CC[C@@]1(C)c1cccc(O)c1 measurednumber=-0.33
molecule=C[C@@H]1CN(CC[C@H](O)C2CCCCC2)CC[C@]1(C)c1cccc(O)c1 measurednumber=-0.62
molecule="CC(C)CCCCN1CC[C@@](C)(c2cccc(O)c2)[C@@H](C)C1 (stereo in doubt; 21)" measurednumber=-0.62

Next molecule, please.
## Input Reported log10 of AD50, molecule C[C@H]1CN(CCC2CCCC2)CC[C@@]1(C)c1cccc(O)c1 : ____
## Output -0.66

---

Target: Mu-type opioid receptor (Mus musculus)
Test: Antagonistic activity towards morphine induced mu-opioid receptor by mouse writhing assay at 1.25 mg/kg subcutaneously
Type: functional, organism-based
Set-up: dose 1.25 mg/kg
Criterion: AD50 strictly less than 0.1 mg/kg. Met: condition met. Not met: condition not met.

compound=C[C@H]1CN(CC2CCCCC2)CC[C@@]1(C)c1cccc(O)c1 classlabel="condition not met"
compound="CC(C)C(O)CCN1CC[C@@](C)(c2cccc(O)c2)[C@@H](C)C1 (stereo not given in full)" classlabel="condition not met"
compound=C[C@H]1CN(CC[C@H](O)C2CCCCC2)CC[C@@]1(C)c1cccc(O)c1 classlabel="condition met"
compound="C[C@H]1CN(CCC(O)C2CCCC2)CC[C@@]1(C)c1cccc(O)c1 (stereo not given in full)" classlabel="condition met"
compound="C[C@H]1CN(CCC2C=CCC2)CC[C@@]1(C)c1cccc(O)c1 (stereo not given in full)" classlabel="condition not met"

Now consider the entry below.
## Input Below 0.1 mg/kg on AD50? Entry C[C@H]1CN(CCC(=O)C2CCCCC2)CC[C@@]1(C)c1cccc(O)c1
## Output condition not met

---

Target: Kappa-type opioid receptor (Rattus norvegicus) (UniProt P34975)
Sequence (P34975 whole entry): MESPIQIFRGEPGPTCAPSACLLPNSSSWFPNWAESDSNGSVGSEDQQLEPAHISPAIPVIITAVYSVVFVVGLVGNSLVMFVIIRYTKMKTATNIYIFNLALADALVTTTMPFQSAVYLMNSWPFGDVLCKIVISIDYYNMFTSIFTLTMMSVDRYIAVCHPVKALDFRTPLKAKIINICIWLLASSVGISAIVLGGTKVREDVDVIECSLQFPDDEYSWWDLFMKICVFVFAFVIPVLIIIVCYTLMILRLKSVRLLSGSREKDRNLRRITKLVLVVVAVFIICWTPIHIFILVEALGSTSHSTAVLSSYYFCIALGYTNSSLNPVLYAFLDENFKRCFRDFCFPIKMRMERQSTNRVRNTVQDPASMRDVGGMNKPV
Experiment: Antagonism of bremazocine induced kappa receptor diuresis in rats at a concentration of 0.08 mg/kg subcutaneously
Assay type: functional, organism-based
Set-up: dose 0.08 mg/kg
Here, each record is paired with measured AD50 data.
Numeric only. Scale: mg/kg

Completed entries (count: 4):
compound="CCCCCCN1CC[C@@](C)(c2cccc(O)c2)[C@@H](C)C1 (stereo in doubt; 37)" measurednumber=0.86
compound=C[C@H]1CN(CCCC2CCCC2)CC[C@@]1(C)c1cccc(O)c1 measurednumber=0.79
compound="C[C@H]1CN(CCCc2cccs2)CC[C@@]1(C)c1cccc(O)c1 (stereo in doubt; 29)" measurednumber=1
compound="C[C@H]1CN(CCC(O)c2ccccc2)CC[C@@]1(C)c1cccc(O)c1 (some centres undefined)" measurednumber=2.5

## Input Value lookup for AD50; key = CC(C)CCCCN1CC[C@@](C)(c2cccc(O)c2)[C@@H](C)C1 (stereo in doubt; 21)
## Output 0.39

## Input Fill in the blank: the reported AD50 of C[C@H]1CN(CCC2C=CCC2)CC[C@@]1(C)c1cccc(O)c1 (some centres undefined) is ____.
## Output 1.4

---

Biological target: Kappa-type opioid receptor (Cavia porcellus)
assayReadout: Ki (nM)
Quick note: give the figure in nM, leave out the unit.

compound=C=C1CC[C@@]2(O)[C@H]3Cc4ccc(O)c5c4[C@@]2(CCN3CC2CC2)[C@H]1O5 units=nM measurednumber=2
compound=C[C@@H]1CN(CC[C@H](O)C2CCCCC2)CC[C@]1(C)c1cccc(O)c1 units=nM measurednumber=6.5
compound="C[C@H]1CN(CCC(O)C2CCCCC2)CC[C@@]1(C)c1cccc(O)c1 (stereo not given in full)" units=nM measurednumber=4.8

## Input Recall the recorded Ki for C=C(C)CCCN1CC[C@@](C)(c2cccc(O)c2)[C@@H](C)C1 with Kappa-type opioid receptor (Cavia porcellus) and state it.
## Output 21

## Input // fetch Kappa-type opioid receptor (Cavia porcellus) Ki for C[C@H]1CN(CCCC2CCCC2)CC[C@@]1(C)c1cccc(O)c1
## Output 3.4
